The reader will find reported IC50 values listed item by item below.
target: Syk kinase (Homo sapiens, UniProt P43405); construct: purchased; test: Syk kinase inhibition, Caliper LabChip off-chip mobility-shift kinase assay; type: biochemical; conditions: Caliper LabChip assay; read-out: Syk Enzyme IC50

Reference set, count: 3
CC(C)Nc1nc(Nc2cc(C(C)(C)O)ccn2)cc2ccn(CCO)c(=O)c12 [compound 705]    14 nM
CC1(Nc2nc(-c3cnc(N)nc3)cc3ccn(CCO)c(=O)c23)CCC1 [compound 907]    < 0.847 nM
CC(C)(C)Nc1nc(Nc2cc(C(C)(C)O)ccn2)cc2ccn(CCO)c(=O)c12 [compound 698]    131 nM

Continue with the compound presented below.
Lookup: IC50 / Syk kinase (Homo sapiens, UniProt P43405) / CC(C)(C)Nc1nc(Nc2cc(-n3cc(C(=O)O)cn3)ncn2)cc2ccn(CCO)c(=O)c12 [compound 888]
24 nM
